B1: ZNF449 (parent)
chain: YRHQRLHTGERPYECTVCKKRFTR

# Variants of: B1
# experimental.protocol: protein stability index of a GFP-peptide fusion (GPS, HEK-293T) (PSI 1-6); higher = more stable;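 also: lentivirally expressed fusions sorted by FACS into six bins by GFP to DsRed ratio, PSI derived from sequencing read proportions per bin multiplied by bin number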
# applied.conditions: c terminus: a fixed tail appended
Entries annotated with measured protein stability index
Enter the number alone.

Solved entries:
seq.string	value.reported
YRHQRLHTGERPYECTVCGKRFTR [K19G]	2.15
YRHQRLHTGERPYECTYCKKRFTR [V17Y]	2.2
YRHQRLHTGERPYECTVCKKRVTR [F22V]	2.52

Sample YRHQRLHTGERPYECTVCKKRKTR [F22K] — what was its protein stability index?
2.79

Please do the same for YRHQRLHTGERPYECFVCKKRFTR [T16F] as well.
2.14

Also YRHQRLHTGERPYECTVCKMRFTR [K20M] , if possible.
2.25
